- System: HT-22
- assay notes: Neuroprotective activity against glutamate-induced oxidative stress in mouse HT22 cells assessed as reduction of intracellular ROS formation at 10 uM after 24 hrs by MTT assay
- Assay type: functional, cell-based
Active and inactive are the calls of the source. No cut-off for these calls is given here.
One label from this list, please: class 1 (active), class 0 (inactive)

Would you mind telling me which call this test gave CN1c2ccc(O)cc2CN2CCCC21 (stereo not drawn) ?
class 1

# repeat for CN1c2ccc(O)cc2CN2CCCc3ccccc3C21 (stereo not drawn)
class 1

# repeat for CCCCCCCNC(=O)Oc1ccc2c(c1)CN1CCCC1N2C (stereo not drawn)
class 1

# repeat for CCCCCCCNC(=O)Oc1ccc2c(c1)CN1CCCc3ccccc3C1N2C (stereo not drawn)
class 1

# repeat for CN1c2ccccc2CN2CCc3ccccc3C21 (stereo not drawn)
class 0

# repeat for CN1c2ccc(O)cc2CN2CCc3ccccc3C21 (stereo not drawn)
class 1

# repeat for CCCCCCCNC(=O)Oc1ccc2c(c1)CN1CCc3ccccc3C1N2C (stereo not drawn)
class 1

# repeat for CCN(C)C(=O)Oc1ccc2c(c1)CN1CCc3ccccc3C1N2C (stereo not drawn)
class 0

###

- assayed system: Acetylcholinesterase (Electrophorus electricus, UniProt O42275)
- Sequence (O42275 whole entry): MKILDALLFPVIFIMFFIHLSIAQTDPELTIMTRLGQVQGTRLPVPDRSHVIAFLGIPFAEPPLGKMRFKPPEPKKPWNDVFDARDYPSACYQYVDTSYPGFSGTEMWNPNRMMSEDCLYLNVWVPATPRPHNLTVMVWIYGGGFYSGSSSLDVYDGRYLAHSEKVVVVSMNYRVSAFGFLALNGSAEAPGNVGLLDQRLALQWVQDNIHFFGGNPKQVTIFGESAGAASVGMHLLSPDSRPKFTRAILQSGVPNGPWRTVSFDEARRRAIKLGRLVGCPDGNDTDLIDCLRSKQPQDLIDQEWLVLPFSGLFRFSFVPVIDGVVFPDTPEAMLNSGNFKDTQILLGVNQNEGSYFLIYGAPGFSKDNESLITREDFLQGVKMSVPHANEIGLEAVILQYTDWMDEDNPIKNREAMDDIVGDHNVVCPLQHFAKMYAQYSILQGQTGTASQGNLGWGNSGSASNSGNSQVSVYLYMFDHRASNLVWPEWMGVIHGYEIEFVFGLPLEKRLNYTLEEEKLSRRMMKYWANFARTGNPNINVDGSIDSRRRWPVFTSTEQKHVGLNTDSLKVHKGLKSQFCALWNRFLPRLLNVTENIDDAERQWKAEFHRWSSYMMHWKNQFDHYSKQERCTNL
- assay notes: Inhibition of Electric eel AChE using acetylthiocholine as substrate after 2 mins
- protocol conditions: read-out: IC50
outcome measure: IC50 (µM)
Number only, in µM; omit the unit.

Need IC50, item COc1ccc2c(c1)CN1CCc3ccccc3C1N2C (stereo not given)
232

# repeat for CN1c2ccc(O)cc2CN2CCCc3ccccc3C21 (stereo not given)
37.8

# repeat for Cc1ccccc1NC(=O)Oc1ccc2c(c1)CN1CCCC1N2C (stereo not given)
66.3

# repeat for CCCCCCCNC(=O)Oc1ccc2c(c1)CN1CCCC1N2C (stereo not given)
32.3

# repeat for CN1c2ccccc2CN2CCc3ccccc3C21 (stereo not given)
145

# repeat for CN1c2ccccc2CN2CCCC21 (stereo not given)
131

# repeat for CCN(C)C(=O)Oc1ccc2c(c1)CN1CCc3ccccc3C1N2C (stereo not given)
24.4

# repeat for COc1cccc(NC(=O)Oc2ccc3c(c2)CN2CCCC2N3C)c1 (stereo not given)
40.2

# repeat for CN1c2ccc(O)cc2CN2CCc3ccccc3C21 (stereo not given)
110

# repeat for CN1c2ccc(O)cc2CN2CCCC21 (stereo not given)
30.6

###

- assayed system: Acetylcholinesterase (Electrophorus electricus, UniProt O42275)
- assay notes: Time dependent inhibition of Electric eel AChE assessed as stability constants of inhibitor-enzyme complex using acetylthiocholine as substrate after 60 mins
outcome measure: Ki
Quote the value and follow it with the unit of measurement.

Need Ki, item CCN(C)C(=O)Oc1ccc2c(c1)CN1CCc3ccccc3C1N2C (stereo unspecified)
1120 nM

###

- assayed system: Cholinesterase (Equus caballus)
- Sequence (P81908 whole entry): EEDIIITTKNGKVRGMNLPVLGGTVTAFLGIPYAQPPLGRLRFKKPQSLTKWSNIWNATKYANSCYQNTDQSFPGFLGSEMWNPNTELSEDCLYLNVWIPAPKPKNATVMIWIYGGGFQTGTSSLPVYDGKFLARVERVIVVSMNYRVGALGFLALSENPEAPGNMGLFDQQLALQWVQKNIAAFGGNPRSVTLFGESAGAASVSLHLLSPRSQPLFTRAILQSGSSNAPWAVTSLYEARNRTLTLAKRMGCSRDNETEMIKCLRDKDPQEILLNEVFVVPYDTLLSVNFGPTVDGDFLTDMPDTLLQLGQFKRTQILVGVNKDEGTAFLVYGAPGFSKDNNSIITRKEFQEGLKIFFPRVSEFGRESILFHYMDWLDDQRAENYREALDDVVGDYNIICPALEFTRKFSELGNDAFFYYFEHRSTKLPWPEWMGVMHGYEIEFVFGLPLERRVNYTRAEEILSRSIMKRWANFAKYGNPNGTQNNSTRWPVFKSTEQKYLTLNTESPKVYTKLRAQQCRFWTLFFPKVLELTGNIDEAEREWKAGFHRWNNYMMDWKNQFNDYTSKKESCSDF
- assay notes: Inhibition of equine serum BChE using acetylthiocholine as substrate after 2 mins
- protocol conditions: read-out: IC50
pIC50: −log10 of the molar value.
Answer 0.0 if pIC50 is under 6, and 1.0 if it is 6 or more.

State whether the measured pIC50 reaches 6, counting equality as reaching it, for CCCCCCCNC(=O)Oc1ccc2c(c1)CN1CCc3ccccc3C1N2C (configuration not stated)
1.0

# repeat for Cc1ccccc1NC(=O)Oc1ccc2c(c1)CN1CCCC1N2C (configuration not stated)
0.0

# repeat for CN1c2ccc(O)cc2CN2CCCC21 (configuration not stated)
0.0

# repeat for CCCCCCCNC(=O)Oc1ccc2c(c1)CN1CCCC1N2C (configuration not stated)
0.0

# repeat for Cc1ccccc1NC(=O)Oc1ccc2c(c1)CN1CCc3ccccc3C1N2C (configuration not stated)
1.0

# repeat for CN1c2ccccc2CN2CCCc3ccccc3C21 (configuration not stated)
0.0

# repeat for CC(C)c1ccc(NC(=O)Oc2ccc3c(c2)CN2CCCC2N3C)cc1 (configuration not stated)
0.0

# repeat for COc1cccc(NC(=O)Oc2ccc3c(c2)CN2CCCC2N3C)c1 (configuration not stated)
0.0

# repeat for CCN(C)C(=O)Oc1ccc2c(c1)CN1CCc3ccccc3C1N2C (configuration not stated)
1.0

# repeat for CN1c2ccccc2CN2CCCC21 (configuration not stated)
0.0

# repeat for CCCCCCCNC(=O)Oc1ccc2c(c1)CN1CCCc3ccccc3C1N2C (configuration not stated)
1.0

# repeat for CN1c2ccccc2CN2CCc3ccccc3C21 (configuration not stated)
0.0

Data provenance: ChEMBL document CHEMBL2150892
